target: CaAbp1-D1; test: SPOT peptide array binding signal intensity (averaged, normalized) (arbitrary units (background-subtracted, floor 0; scale differs between SH3 domains)); higher = stronger binding of the SH3 domain to the peptide
So basically: SPOT peptide array binding signal intensity at 300 or higher? That is TRUE. Lower than 300? That is FALSE.

| BINDER | LABEL |
| --- | --- |
| NTMKKRPAPPSLPSL | TRUE |
| VGFRLALKFPSRITG | TRUE |

## Input Hi team, for RKRAPTPPAPSRSEK , is the recorded SPOT peptide array binding signal intensity at or above 300?
## Output TRUE

## Input Determine whether this binder has SPOT peptide array binding signal intensity no lower than 300: DTIDNVKSKIQDKEG
## Output FALSE

## Input Determine whether measured SPOT peptide array binding signal intensity meets or exceeds 300 for SSTPTTPERPKRKSG
## Output TRUE

## Input # check: SPOT peptide array binding signal intensity of SRQAIPPPVPNRPGG is greater than or equal to 300
## Output FALSE

## Input State whether the measured SPOT peptide array binding signal intensity reaches 300, counting equality as reaching it, for RSVKRPRRAPRPVVS
## Output TRUE

## Input Kindly determine if SPOT peptide array binding signal intensity recorded for EREKALPPIPFTTTL is above or exactly 300.
## Output FALSE

## Input Quick check, SPOT peptide array binding signal intensity >= 300? IKTRSVPKIPSIESV
## Output FALSE

## Input Exam item: decide whether the reported SPOT peptide array binding signal intensity for NHSRSLFSLPGNQQS is at least 300.
## Output FALSE

## Input Answer whether SPOT peptide array binding signal intensity of ATNVPVAPPPPPASL is greater than or equal to 300.
## Output FALSE

The measurements presented in this section are drawn from the supplement of paper PMC4466140.
